Here, each record is paired with measured growth inhibition data.
Assay: NCI Yeast Anticancer Drug Screen. Data for the mec2-1 strain (AID 157)
Conditions: S. cerevisiae mec2-1 strain, at 50.0 µM, stronger effect = higher value
Compounds without any hit were thinned out: in the full panel of roughly 79,000, 15% have a hit.
Write it as a number; the unit % goes unstated.

Reference set (3 entries):
• CCOC(=O)CSCCC(=O)OC = 3.1
• O=C(CCCCCC(=O)CC(=O)CCc1ccccc1)CC(=O)CCc1ccccc1 = 36.4
• O=C1C(=O)C(c2ccccc2)(c2ccccc2)C(=O)N1c1ccccc1 = 13.2

Per the records, this molecule ( "O=C(O)c1cc(-c2ccccc2Cl)nc2cc3ccccc3cc12" ) has growth inhibition equal to -19.7

Entry "CN1NC2(CCCCC2)ON=C1c1ccccc1" , growth inhibition reported as -5.5

Lab note: measured growth inhibition of "N#CCCNC=O" was 0.4

growth inhibition in this record for "COc1ccc(C(=O)C[n+]2cc(Br)cc(Br)c2)cc1" : -12.8
